# abundance fitness per entry
B1: Advillin, residues 785 to 819; numbered along this chain, O75366 (parent)
chain: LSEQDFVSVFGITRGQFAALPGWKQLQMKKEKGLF

Variants of: B1
Test: abundance fitness (aPCA) (normalised: wild type 0, dead -1); higher = more abundant; growth selection in yeast, the domain comes from the species named
Details: Homo sapiens
Response field accepts a number only; no unit should be typed.

Please review the following examples before continuing.
Record Sequence: LSEQDFVSVFGITRGQHAALPGWKQLQMKKEKGLF [F17H]
abundance fitness: -0.965

Record Sequence: LSEQDFVSVFGITRGQFAALPGWKQLQMKKEKGLS [F35S]
abundance fitness: 0.355

Record Sequence: LSEQDFVSVNGITRGQFAALPGWKQLQMKKEKGLF [F10N]
abundance fitness: -0.2

Record Sequence: LSEIDFVSVFGITRGQFAALPGWKQLQMKKEKGLF [Q4I]
abundance fitness: 0.237

Record Sequence: LSEQPFVSVFGITRGQFAALPGWKQLQMKKEKGLF [D5P]
abundance fitness: -0.651

Form field: reported abundance fitness of LSEQDFVSVFGITRGQFAALYGWKQLQMKKEKGLF [P21Y]
-0.668

Form field: reported abundance fitness of LSEQDFQSVFGITRGQFAALPGWKQLQMKKEKGLF [V7Q]
0.004

Form field: reported abundance fitness of LSEQDFVSVFGITRGQFAAMPGWKQLQMKKEKGLF [L20M]
-0.211

Form field: reported abundance fitness of LSEQDFVSVFGITRGQFAALPGWKQLQMKKGKGLF [E31G]
-0.283

Form field: reported abundance fitness of LSMQDFVSVFGITRGQFAALPGWKQLQMKKEKGLF [E3M]
-0.461
